Source of measurements: patent US20120014876A1

Molecular target: rat frizzled-1 receptor (rat, UniProt Q08463 69-641)
Sequence (Q08463 69-641): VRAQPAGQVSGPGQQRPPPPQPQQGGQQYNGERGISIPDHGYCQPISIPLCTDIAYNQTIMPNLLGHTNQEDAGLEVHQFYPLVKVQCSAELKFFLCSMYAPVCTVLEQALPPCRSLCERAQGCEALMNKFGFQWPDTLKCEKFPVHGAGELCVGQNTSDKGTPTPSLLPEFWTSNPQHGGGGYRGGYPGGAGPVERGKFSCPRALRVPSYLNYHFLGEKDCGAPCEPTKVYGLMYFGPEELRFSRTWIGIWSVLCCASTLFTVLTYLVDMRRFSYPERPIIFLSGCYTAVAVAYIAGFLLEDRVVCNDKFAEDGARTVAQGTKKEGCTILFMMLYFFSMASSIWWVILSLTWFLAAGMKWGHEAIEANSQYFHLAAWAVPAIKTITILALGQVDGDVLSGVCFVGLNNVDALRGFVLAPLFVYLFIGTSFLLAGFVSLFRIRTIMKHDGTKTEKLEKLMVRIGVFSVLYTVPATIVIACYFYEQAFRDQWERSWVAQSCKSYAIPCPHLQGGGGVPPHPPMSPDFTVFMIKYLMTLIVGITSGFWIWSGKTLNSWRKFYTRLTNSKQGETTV
Test: cell-based or functional assay
Where no end group is shown, it is not given here.
Label rule, in plain words: % of inhibition of Wnt3a-induced luciferase activity, peptide 1.10^-9 M of 70% and up is YES, under 70% is NO.

CNKASEGMDGCEL-NH2 (cysteine pairing not given here) [UM206 (4 T = A)]; NO
CNKTAEGMDGCEL-NH2 (cysteine pairing not given here) [UM206 (5 S = A)]; YES
CNKTSEGMDGCAA-NH2 (cysteine pairing not given here) [UM206 (12-13 EL = AA)]; NO

Problem: Would you say CNKASEAMAGCEL-NH2 (cysteine pairing not given here) [UM206 (4 T = A, 7 G = A, 9 D = A)] shows % of inhibition of Wnt3a-induced luciferase activity, peptide 1.10^-9 M at minimum 70%?
Result: NO
